Recorded z-score, one value per entry.
assay: JC-1 mitochondrial signal, unstimulated MM1S myeloma – cell-based, JC-1 fluorescence, 24 h, 100 nL compound, profiling panel (AID 1170); conditions: MM1S mitochondrial potential, higher = more signal; further: test concentration not given here
I'd appreciate a reply containing only the number, no unit.

Example entries begin here.
{"molecule": "O=C(NCc1ccccc1)[C@]1(Cc2ccccc2)N=C(c2ccc(OCCCO)cc2)O[C@@H]1c1ccccc1", "z-score": -1.24}
{"molecule": "CCCCCCC#C[Si](O[C@H](c1ccccc1)c1cn(Cc2cccc(Cl)c2)nn1)(C(C)C)C(C)C", "z-score": -1.06}
{"molecule": "CC(C)[Si](C#C[Si](C(C)C)(C(C)C)C(C)C)(O[C@H](C)c1cn(Cc2cccc(Cl)c2)nn1)C(C)C", "z-score": 0.238}

Kindly consider the entry below.
# input Query: z-score; subject: CN1C(=O)C2C=CC(C(O)c3ccc(F)cc3)N(N3CCCCC3)C2C1=O (centres undefined)
# output -0.118

---

assay: JC-1 mitochondrial signal, unstimulated myeloma cells – cell-based, JC-1 fluorescence, RPMI8226, 24 h, 100 nL compound, profiling panel (AID 1169); details: JC-1 mitochondrial potential fluorescence, higher = more signal; further: test concentration not given here
metricName: z-score
I'd appreciate a reply containing only the number, no unit.

Example entries begin here.
{"compound": "OCc1ccc(-c2cc[n+](Cc3cccc(OC(F)(F)F)c3)cc2)cc1", "z-score": -0.672}
{"compound": "COc1ccc([Si](C)(C)[C@@H]2[C@@H](CC(=O)N(CCO)Cc3ccccc3)O[C@]3(C(=O)N(Cc4ccc(N5CCOC5=O)cc4)c4ccccc43)[C@H]2C)cc1", "z-score": -1.01}

# input Query: z-score; subject: O=C1OCC=C[C@H]2OC34C=CCN(CCN5CCOCC5)C(=O)[C@H]3N(CCCCCO)C(=O)[C@@H]4[C@@H]12 (some centres undefined)
# output 0.205

# input Note, next up: `CCOC(=O)C1=CC[C@@H](c2ccc(N(CC)CC)cc2)N(S(=O)(=O)c2ccc(C)cc2)[C@H]1c1ccc([N+](=O)[O-])cc1`
# output -0.673

# input Note, next up: C=CCC(OC(C)=O)[C@@H]1[C@@H](N(Cc2cccc3ccccc23)C(=O)Cc2ccc(F)cc2)c2cc(OCCCO)ccc2N1C(=O)Cc1ccc(OC)cc1 (some centres undefined)
# output 0.183

# input Note, next up: `Cc1ccc(-c2cccc(=O)o2)cc1`
# output -0.177

# input Note, next up: `CCOC(=O)C1=CC[C@@H](c2cccc(Br)c2)N(S(=O)(=O)c2ccc(C)cc2)[C@H]1c1ccc([N+](=O)[O-])cc1`
# output -0.841

# input Note, next up: CN1C(=O)C2C=CC(C(O)c3cccc4ccccc34)N(NC(=O)OC(C)(C)C)C2C1=O (centres undefined)
# output 0.219

# input Note, next up: CC(C)C(CO)N1C(=O)[C@@H]2[C@H]3C(=O)OCC=C[C@H]3OC23C=CCN(Cn2nnc4ccccc42)C(=O)[C@@H]13 (some centres undefined)
# output 0.432

# input Note, next up: `CC(C)CNC(=O)[C@@]1(c2ccc([N+](=O)[O-])cc2)CC(=O)N(C(C)C)[C@@H]1c1ccc(CO)cc1`
# output 0.604

# input Note, next up: CC(C)CCC[C@@H](C)[C@H]1CC[C@@]2(C)C3=C(CC[C@]12C)[C@@]1(C)CC[C@H](OC(=O)c2ccc(N)cc2)C(C)(C)C1CC3 (some centres undefined)
# output -0.064
